Each recorded value in this set is attributed to the supplement of paper PMC8728848.

- measured-target: GlcNAc(b1-3)Man
- method-notes: glycan array binding signal (z-score within array); higher = stronger binding
- experimental-context: glycan notation: IUPAC condensed, linker removed
The full list was thinned out, with the strongest signals kept by preference.
What glycan array binding signal (z-score) was measured for each of the following?
No unit in the answer, please; the number alone is enough.

I'd like to know its glycan array binding signal (z-score). The binder in question is LICBM33A (Lactococcus lactis), Q9CE94 (protein) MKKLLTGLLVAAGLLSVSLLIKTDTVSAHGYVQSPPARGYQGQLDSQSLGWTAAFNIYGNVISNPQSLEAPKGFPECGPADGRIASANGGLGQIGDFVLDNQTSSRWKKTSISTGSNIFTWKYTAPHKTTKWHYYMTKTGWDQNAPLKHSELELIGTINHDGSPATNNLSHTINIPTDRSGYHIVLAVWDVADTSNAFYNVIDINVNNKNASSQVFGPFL 0.023

I'd like to know its glycan array binding signal (z-score). The binder in question is RVL (Remusatia vivipara), B5LYJ9 (protein) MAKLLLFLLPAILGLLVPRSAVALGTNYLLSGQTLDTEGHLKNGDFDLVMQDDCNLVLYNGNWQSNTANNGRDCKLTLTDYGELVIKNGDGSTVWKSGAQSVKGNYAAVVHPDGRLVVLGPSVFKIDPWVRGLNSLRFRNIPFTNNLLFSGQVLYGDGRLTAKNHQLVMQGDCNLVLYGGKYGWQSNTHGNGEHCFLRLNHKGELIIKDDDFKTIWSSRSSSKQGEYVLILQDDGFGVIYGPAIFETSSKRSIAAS -0.227

I'd like to know its glycan array binding signal (z-score). The binder in question is Tectonin 2 (Laccaria bicolor) (protein) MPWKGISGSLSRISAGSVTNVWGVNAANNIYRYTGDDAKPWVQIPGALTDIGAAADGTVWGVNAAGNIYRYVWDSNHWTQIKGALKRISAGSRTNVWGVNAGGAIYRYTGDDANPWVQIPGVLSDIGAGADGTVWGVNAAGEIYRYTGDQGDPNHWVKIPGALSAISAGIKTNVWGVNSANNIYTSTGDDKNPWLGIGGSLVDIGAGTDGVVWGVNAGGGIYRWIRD -0.371

I'd like to know its glycan array binding signal (z-score). The binder in question is PpFlo1 (Pichia pastoris) (protein) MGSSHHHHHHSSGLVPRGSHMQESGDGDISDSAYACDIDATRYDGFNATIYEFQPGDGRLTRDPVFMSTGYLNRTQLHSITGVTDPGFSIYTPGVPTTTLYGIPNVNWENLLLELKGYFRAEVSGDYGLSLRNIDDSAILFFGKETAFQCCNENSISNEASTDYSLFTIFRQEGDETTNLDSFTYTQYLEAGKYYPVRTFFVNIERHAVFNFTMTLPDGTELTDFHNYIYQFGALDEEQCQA 1.9

I'd like to know its glycan array binding signal (z-score). The binder in question is ArathEULS3 (Arabidopsis thaliana), Q945P1 (protein) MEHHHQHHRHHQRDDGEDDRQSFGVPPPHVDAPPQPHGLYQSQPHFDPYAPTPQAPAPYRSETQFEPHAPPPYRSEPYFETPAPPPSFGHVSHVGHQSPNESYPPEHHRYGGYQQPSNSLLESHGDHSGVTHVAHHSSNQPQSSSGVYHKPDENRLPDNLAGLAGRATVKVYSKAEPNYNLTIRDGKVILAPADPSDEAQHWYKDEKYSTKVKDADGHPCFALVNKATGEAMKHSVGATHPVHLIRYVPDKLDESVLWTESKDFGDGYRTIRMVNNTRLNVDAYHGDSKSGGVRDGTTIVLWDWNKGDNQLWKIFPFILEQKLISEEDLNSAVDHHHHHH -0.164

I'd like to know its glycan array binding signal (z-score). The binder in question is Gal 4 (Mus musculus), P56470 (protein) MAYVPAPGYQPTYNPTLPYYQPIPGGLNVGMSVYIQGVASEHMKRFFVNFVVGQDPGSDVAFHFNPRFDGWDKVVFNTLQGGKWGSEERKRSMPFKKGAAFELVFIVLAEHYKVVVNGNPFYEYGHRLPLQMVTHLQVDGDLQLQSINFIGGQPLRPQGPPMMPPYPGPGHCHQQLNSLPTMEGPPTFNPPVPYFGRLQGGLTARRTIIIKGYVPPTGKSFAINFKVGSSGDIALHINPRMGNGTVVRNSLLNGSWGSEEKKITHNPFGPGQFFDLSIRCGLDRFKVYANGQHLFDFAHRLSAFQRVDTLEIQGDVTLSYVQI -0.218

I'd like to know its glycan array binding signal (z-score). The binder in question is Gal 9 (Canis lupus) (protein) MAFSSSQPPYLSPGVPFSGKIQGGLQDGLKITINGTILYCNGTRFAVNFHSGHSDSDIAFHFNPRFEEGGYVVCNTKQKGSWGSEERKMQMPFQMGNPFELCFMVNSCDFKVTVNGSHFTQYSHRVPFHYVDTLSITGAVQLSYISFQSPGVWQSSSAPITQTVIHTVQTTPGQPFPNPIIPPTAYPTPTYPMPFFTSIPGGLYPSKSIIVSGTVLPGAKRFHINLRSGNDIAFHLNPRFNENTVVRNMQINNSWGSEERSLPRKMPFVQGQSFSVWIMCEGHCFKVAVDGEHLFEYYHRLKNLLAINNMEVAGDVQLTHVQT -0.347

I'd like to know its glycan array binding signal (z-score). The binder in question is LlpB (Pseudomonas fluorescens) (protein) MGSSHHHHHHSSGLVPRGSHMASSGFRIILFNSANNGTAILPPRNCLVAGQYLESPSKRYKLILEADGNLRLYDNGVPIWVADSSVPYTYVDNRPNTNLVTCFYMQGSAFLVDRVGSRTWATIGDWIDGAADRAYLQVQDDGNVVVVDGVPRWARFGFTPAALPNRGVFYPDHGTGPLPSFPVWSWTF 0.669

I'd like to know its glycan array binding signal (z-score). The binder in question is Layilin (Mus musculus), Q8C351 (protein) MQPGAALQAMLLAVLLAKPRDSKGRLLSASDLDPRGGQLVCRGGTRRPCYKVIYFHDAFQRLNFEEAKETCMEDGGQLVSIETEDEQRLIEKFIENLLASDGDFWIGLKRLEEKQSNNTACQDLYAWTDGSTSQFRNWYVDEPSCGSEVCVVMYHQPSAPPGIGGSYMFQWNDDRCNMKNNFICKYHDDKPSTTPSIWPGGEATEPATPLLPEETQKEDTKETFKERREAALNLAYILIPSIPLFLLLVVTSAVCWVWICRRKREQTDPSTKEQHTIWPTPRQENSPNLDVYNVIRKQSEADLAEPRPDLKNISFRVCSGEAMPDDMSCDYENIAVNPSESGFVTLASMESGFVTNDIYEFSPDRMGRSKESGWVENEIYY 0.015
